We begin with a simple list: items and their reported Ki.
# measured target: Human immunodeficiency virus type 1 protease (Human immunodeficiency virus 1, UniProt Q72874)
measured quantity: Ki (nM)

[
  {
    "compound": "CCCC(c1cccc(NS(=O)(=O)c2cccc3cccnc23)c1)c1c(O)c2c(oc1=O)CCCCCC2 (stereo not drawn)",
    "measured quantity": "Ki",
    "readout units": "nM",
    "quantitative result": 2.1
  },
  {
    "compound": "O=c1c2c(oc(O)c1C(c1cccc(NS(=O)(=O)c3cccc(Cl)c3)c1)C1CC1)CCCCCC2 (stereo not drawn)",
    "measured quantity": "Ki",
    "readout units": "nM",
    "quantitative result": 2.7
  },
  {
    "compound": "CC(C)C(c1cccc(NS(=O)(=O)c2cccc3cccnc23)c1)c1c(O)c2c(oc1=O)CCCCCC2 (stereo not drawn)",
    "measured quantity": "Ki",
    "readout units": "nM",
    "quantitative result": 4.2
  },
  {
    "compound": "CCCC(c1cccc(NS(=O)(=O)c2ccc(Cl)cc2)c1)c1c(O)c2c(oc1=O)CCCCCC2 (stereo not drawn)",
    "measured quantity": "Ki",
    "readout units": "nM",
    "quantitative result": 4
  },
  {
    "compound": "Cc1cccc(S(=O)(=O)Nc2cccc(C(c3c(O)c4c(oc3=O)CCCCCC4)C3CC3)c2)c1 (stereo not drawn)",
    "measured quantity": "Ki",
    "readout units": "nM",
    "quantitative result": 5.3
  },
  {
    "compound": "CCCC(c1cccc(NS(=O)(=O)c2ccc(C#N)cc2)c1)c1c(O)c2c(oc1=O)CCCCCC2 (stereo not drawn)",
    "measured quantity": "Ki",
    "readout units": "nM",
    "quantitative result": 1.4
  },
  {
    "compound": "O=c1c2c(oc(O)c1C(c1cccc(NS(=O)(=O)c3ccc(Cl)cc3Cl)c1)C1CC1)CCCCCC2 (stereo not drawn)",
    "measured quantity": "Ki",
    "readout units": "nM",
    "quantitative result": 6.2
  },
  {
    "compound": "CC(C)CC(c1cccc(NS(=O)(=O)c2ccc(C#N)cc2)c1)c1c(O)c2c(oc1=O)CCCCCC2 (stereo not drawn)",
    "measured quantity": "Ki",
    "readout units": "nM",
    "quantitative result": 1.5
  },
  {
    "compound": "CC(C)c1ccc(S(=O)(=O)Nc2cccc(C(c3c(O)c4c(oc3=O)CCCCCC4)C3CC3)c2)cc1 (stereo not drawn)",
    "measured quantity": "Ki",
    "readout units": "nM",
    "quantitative result": 13
  },
  {
    "compound": "Nc1ccc(S(=O)(=O)Nc2cccc(C(c3c(O)c4c(oc3=O)CCCCCC4)C3CC3)c2)cc1 (stereo not drawn)",
    "measured quantity": "Ki",
    "readout units": "nM",
    "quantitative result": 6.9
  },
  {
    "compound": "O=c1c2c(oc(O)c1C(c1cccc(NS(=O)(=O)c3cccs3)c1)C1CC1)CCCCCC2 (stereo not drawn)",
    "measured quantity": "Ki",
    "readout units": "nM",
    "quantitative result": 6.3
  },
  {
    "compound": "O=c1c2c(oc(O)c1C(c1cccc(NS(=O)(=O)c3ccccn3)c1)C1CC1)CCCCCC2 (stereo not drawn)",
    "measured quantity": "Ki",
    "readout units": "nM",
    "quantitative result": 2.2
  },
  {
    "compound": "O=c1c2c(oc(O)c1C(c1cccc(NS(=O)(=O)c3ccc(Cl)cc3)c1)C1CC1)CCCCCC2 (stereo not drawn)",
    "measured quantity": "Ki",
    "readout units": "nM",
    "quantitative result": 2.5
  }
]

---

# Tested on: Human immunodeficiency virus 1
# protocol summary: Antiviral activity in HIV-1 infected H9 cells
# Assay type: functional
# measurement context: Human immunodeficiency virus 1, H9; read-out: ED50 (the source's name)
We begin with a simple list: items and their reported EC50.
measured quantity: EC50 (µM)

[
  {
    "compound": "O=c1c2c(oc(O)c1C(c1cccc(NS(=O)(=O)c3ccc(I)cc3)c1)C1CC1)CCCCCC2 (configuration not stated)",
    "measured quantity": "EC50",
    "operator symbol": "=",
    "quantitative result": 5.3
  },
  {
    "compound": "O=c1c2c(oc(O)c1C(c1cccc(NS(=O)(=O)c3cccc(Br)c3)c1)C1CC1)CCCCCC2 (configuration not stated)",
    "measured quantity": "EC50",
    "operator symbol": "=",
    "quantitative result": 3
  },
  {
    "compound": "CC(C)CC(c1cccc(NS(=O)(=O)c2ccc(F)cc2)c1)c1c(O)c2c(oc1=O)CCCCCC2 (configuration not stated)",
    "measured quantity": "EC50",
    "operator symbol": ">",
    "quantitative result": 10
  },
  {
    "compound": "Nc1cccc(S(=O)(=O)Nc2cccc(C(c3c(O)c4c(oc3=O)CCCCCC4)C3CC3)c2)c1 (configuration not stated)",
    "measured quantity": "EC50",
    "operator symbol": "=",
    "quantitative result": 6.3
  },
  {
    "compound": "O=c1c2c(oc(O)c1C(c1cccc(NS(=O)(=O)c3ccc(OC(F)(F)F)cc3)c1)C1CC1)CCCCCC2 (configuration not stated)",
    "measured quantity": "EC50",
    "operator symbol": "=",
    "quantitative result": 3.4
  },
  {
    "compound": "CCC(c1cccc(NS(=O)(=O)c2ccc(C#N)cc2)c1)c1c(O)c2c(oc1=O)CCCCCC2 (configuration not stated)",
    "measured quantity": "EC50",
    "operator symbol": "=",
    "quantitative result": 3.3
  },
  {
    "compound": "CCCC(c1cccc(NS(=O)(=O)c2ccc(F)cc2)c1)c1c(O)c2c(oc1=O)CCCCCC2 (configuration not stated)",
    "measured quantity": "EC50",
    "operator symbol": "=",
    "quantitative result": 6.3
  }
]
